# reported logP[a]; entries follow
measurement.description: log P by HPLC on reversed-phase columns (C 18), EEC directive 79/831 Annex V.A8
Assay type: physicochemical
condition.label: method [a]
Write the number on its own, no unit after it.

O=c1c2ncsc2ncn1-c1cc(SCC(F)(F)F)c(Cl)cc1Cl: 2.83
Cc1nn(C)c2ncn(-c3ccc(C(F)(F)F)c(SCC(F)(F)F)c3)c(=O)c12: 3.06
CC(C)(C)c1snc2ncn(-c3ccc(Cl)c(SCC(F)(F)F)c3)c(=O)c12: 4.06

Problem: What value of logP[a] has been reported for the following molecule? Cc1nn(C)c2ncn(-c3ccc(C(F)(F)F)c([S+]([O-])CC(F)(F)F)c3)c(=O)c12 (racemic)
Solution: 2.39

Problem: Next molecule: `Cc1cc(F)c(-n2cnc3cnn(C)c3c2=O)cc1SCC(F)(F)F`
Solution: 2.76

Problem: Then what about the molecule Cc1cc(F)c(-n2cnc3ccsc3c2=O)cc1[S+]([O-])CC(F)(F)F (centres unmarked) [Compound 113] ?
Solution: 2.35

Problem: Another molecule to check: Cc1cc(C)c([S+]([O-])CC(F)(F)F)cc1-n1c(C)nc2c(ncn2C)c1=O (racemic)
Solution: 1.52

Problem: Likewise for `Cc1cc(C)c(-n2c(C)nc3c(ncn3C)c2=O)cc1SCC(F)(F)F` ?
Solution: 2.36

Problem: Next entry: Cc1cc(F)c(-n2cnc3c(cnn3CC(F)(F)F)c2=O)cc1[S+]([O-])CC(F)(F)F (racemic)
Solution: 2.34

Problem: Field entry: O=c1c2sccc2ncn1-c1ccc(Cl)c([S+]([O-])CC(F)(F)F)c1 (centres unmarked)
Solution: 2.07

Problem: O=c1c2sccc2ncn1-c1ccc(C(F)(F)F)c([S+]([O-])CC(F)(F)F)c1 (centres unmarked) ?
Solution: 2.44

Problem: Could you do the same for `Cn1ncc2c(=O)n(-c3ccc(Cl)c(SCC(F)(F)F)c3)cnc21` , please?
Solution: 2.58

Problem: Now try Cc1ccc(-n2cnc3c(c(C)nn3C)c2=O)cc1[S+]([O-])CC(F)(F)F (racemic) .
Solution: 1.79

Problem: // query: `Cc1cc(F)c(-n2c(C(F)(F)F)nc3scnc3c2=O)cc1SCC(F)(F)F`
Solution: 3.55

Problem: Subsequent entry: Cc1cc(F)c(-n2cnc3ccsc3c2=O)cc1SCC(F)(F)F [Compound 108]
Solution: 3.01

Problem: Cool, now `Cc1cc(F)c(-n2cnc3c(ncn3C)c2=O)cc1SCC(F)(F)F`
Solution: 2.17

Problem: Cool, now Cc1cc(F)c(-n2c(C)nc3scnc3c2=O)cc1[S+]([O-])CC(F)(F)F (centres unmarked)
Solution: 1.72

---

measurement.description: log P by HPLC on reversed-phase columns (C 18), EEC directive 79/831 Annex V.A8
Type: physicochemical
condition.label: method [a]
assay.endpoint: logP[a]
// response body must contain only the number

# annotated cases, reported logP[a] shown
Cn1ncc2c(=O)n(-c3ccc(C(F)(F)F)c(SCC(F)(F)F)c3)cnc21: 2.82
O=c1c2sccc2ncn1-c1ccc(Cl)c(SCC(F)(F)F)c1: 2.90
Cc1cc(F)c(-n2cnc3ccsc3c2=O)cc1[S+]([O-])CC(F)(F)F (stereo not drawn) [Compound 112]: 1.96
Cc1nc2c(=O)n(-c3cc(SCC(F)(F)F)c(C)cc3C)cnc2s1: 2.92
Cc1cc(F)c(-n2cnc3scnc3c2=O)cc1SCC(F)(F)F: 2.54
Cc1ccc(-n2cnc3nn(C)c(C)c3c2=O)cc1SCC(F)(F)F: 2.38

Problem: Requested read-out: logP[a]. Entry: Cc1nc2c(=O)n(-c3cc([S+]([O-])CC(F)(F)F)c(C)cc3C)cnc2s1 (stereo not drawn)
Solution: 1.84

---

measurement.description: log P by HPLC on reversed-phase columns (C 18), EEC directive 79/831 Annex V.A8
Format: physicochemical
condition.label: method [b]
Rule: logP[b] below 2 gives fulfilled, anything at or above gives not fulfilled.

Cc1cc(C)c(-n2c(C)nc3c(ncn3C)c2=O)cc1SCC(F)(F)F [Compound 56]: not fulfilled
Cc1cc(F)c(-n2c(C)nc3cnn(C)c3c2=O)cc1[S+]([O-])CC(F)(F)F (centres unmarked) [Compound 41]: fulfilled
O=c1c2ccsc2ncn1-c1cc([S+]([O-])CC(F)(F)F)c(Cl)cc1Cl (centres unmarked) [Compound 98]: not fulfilled

Problem: Quick check: does O=c1c2ccsc2ncn1-c1ccc(C(F)(F)F)c(SCC(F)(F)F)c1 [Compound 94] have logP[b] under 2?
Solution: not fulfilled

Problem: What do you have for Cc1cc(F)c(-n2c(C)nc3cnn(C)c3c2=O)cc1SCC(F)(F)F [Compound 39] ?
Solution: not fulfilled

---

measurement.description: log P by HPLC on reversed-phase columns (C 18), EEC directive 79/831 Annex V.A8
Assay type: physicochemical
condition.label: reversed-phase C18 HPLC column, pH 2.7, acidic range, pH 2.7, 0.1% aqueous formic acid / acetonitrile; read-out: log P[a]
chromatographic logP values for the compounds below.
The response must contain the number and no unit.

Cc1cc(F)c(-n2cnc3c(cnn3C)c2=O)cc1[S+]([O-])CC(F)(F)F (stereo not drawn): 1.73

Problem: GET /values?readout=chromatographic logP&item= `Nc1cc(SSc2cc(N)c(Cl)cc2Cl)c(Cl)cc1Cl`
Solution: 5.14

Problem: Okay, and `Cc1ccc(NC(=O)C(F)(F)F)c(F)c1` ?
Solution: 2.4

Problem: Can you check Cc1cc(F)c(-n2c(C)nc3c(cnn3C)c2=O)cc1[S+]([O-])CC(F)(F)F (stereo not drawn) next?
Solution: 1.85

Problem: Try this compound too: `Nc1ccc(Cl)c(SCC(F)(F)F)c1`
Solution: 2.64

Problem: One more compound: `Nc1cc(SSc2ccc(Cl)c(N)c2)ccc1Cl`
Solution: 3.84

Problem: Continue with `Nc1cc(SCC(F)(F)F)ccc1F`
Solution: 2.57

Problem: Another compound to check: Cc1cc(F)c(-n2c(C(F)(F)F)nc3c(cnn3C)c2=O)cc1[S+]([O-])CC(F)(F)F (stereo not drawn)
Solution: 2.67

Problem: Please do the same for `Cc1cc(F)c(-n2cnc3c(cnn3C)c2=O)cc1SCC(F)(F)F` as well.
Solution: 2.66

---

measurement.description: log P by HPLC on reversed-phase columns (C 18), EEC directive 79/831 Annex V.A8
Type: physicochemical
condition.label: reversed-phase C18 HPLC column, pH 2.7, acidic range, pH 2.7, 0.1% aqueous formic acid / acetonitrile; read-out: log P[a]
Catalogue of chromatographic logP readings, one per entry.
# answer = number (no unit)

Here is how some compounds turned out for chromatographic logP.
Cc1cc(F)c(B(O)O)cc1[S+]([O-])CC(F)(F)F (stereo not shown): 1.38
Cc1cc(F)c(-n2c(C)nc3c(cnn3C)c2=O)cc1SCC(F)(F)F: 2.84
Nc1ccc(Cl)c(SSc2cc(N)ccc2Cl)c1: 3.31

Problem: What value of chromatographic logP has been recorded for this entry: `Cc1cc(F)c(NC(=O)c2cnn(C)c2N)cc1SCC(F)(F)F`
Solution: 2.44

Problem: Try the compound `Cc1cc(F)c(NC(=O)c2cnn(C)c2[N+](=O)[O-])cc1SCC(F)(F)F`
Solution: 3.22

Problem: Do the same for `Cc1cc(F)c(B(O)O)cc1SCC(F)(F)F` please
Solution: 2.34

Problem: For Cc1ccc(-n2cnc3sccc3c2=O)cc1[S+]([O-])CC(F)(F)F (stereo not shown) then?
Solution: 1.94

Problem: Subsequent entry: `Cc1ccc(-n2cnc3sccc3c2=O)cc1SCC(F)(F)F`
Solution: 3.04

Problem: Follow-up entry: `FC(F)(F)CSc1cc(Br)ccc1C(F)(F)F`
Solution: 4.22

---

measurement.description: log P by HPLC on reversed-phase columns (C 18), EEC directive 79/831 Annex V.A8
Format: physicochemical
condition.label: neutral range, pH 7.8, 0.001 molar aqueous ammonium bicarbonate / acetonitrile; read-out: log P[b]
assay.endpoint: chromatographic logP
// no unit string in output, number only

Study these solved cases before continuing.
O=[N+]([O-])c1cc(SSc2ccc(F)c([N+](=O)[O-])c2)ccc1F: 3.79
O=[N+]([O-])c1cc(SSc2cc([N+](=O)[O-])c(Cl)cc2Cl)c(Cl)cc1Cl: 5.64
O=C(Nc1ccc(Cl)cc1F)C(F)(F)F: 2.4

Consider the additional compound presented here.
Problem: Data request, read-out chromatographic logP, for `O=[N+]([O-])c1ccc(Cl)c(SSc2cc([N+](=O)[O-])ccc2Cl)c1`
Solution: 5.01

---

measurement.description: log P by HPLC on reversed-phase columns (C 18), EEC directive 79/831 Annex V.A8
Type: physicochemical
condition.label: reversed-phase C18 HPLC column, pH 2.7, acidic range, pH 2.7, 0.1% aqueous formic acid / acetonitrile; read-out: log P[a]
Measured chromatographic logP, listed per entry.

Take a look at these entries with their results.
Cc1cc(C)c(SCC(F)(F)F)cc1Br [VIIa-11]: 4.81
Cc1cc(F)c(I)cc1SCC(F)(F)F [VIIa-1-I]: 4.44
Cc1ccc(B2OC(C)(C)C(C)(C)O2)cc1SCC(F)(F)F: 3.73
O=C(Nc1ccc(Cl)c(SCC(F)(F)F)c1)C(F)(F)F [Compound X-3]: 3.46
Cc1ccc(B(O)O)cc1SCC(F)(F)F [VIIIa-7]: 2.3

Next:
Problem: Tell me the measured chromatographic logP of FC(F)(F)CSc1cc(Br)c(Cl)cc1Cl [VIIa-6] , please.
Solution: 4.8
